# measurementNotes: Pharmacokinetics in rats, oral versus intravenous administration
# Format: in vivo
# conditionParameters: OS (oral), 10 mg/Kg
Below, each entry is listed with its recorded V.
Kindly answer with a numeric value in L/kg, unit omitted.

O=C(O)C(O)C(O)C(=O)O.c1ccc(-c2ncc3cc(-n4ccnc4)ccc3n2)cc1 [tartrate form A] = 5.47

The reported value for c1ccc(-c2ncc3cc(-n4ccnc4)ccc3n2)cc1 in terms of V is 1.60

Notebook: O=C(O)/C=C\C(=O)O.c1ccc(-c2ncc3cc(-n4ccnc4)ccc3n2)cc1 [maleate form A] , V read as 1.90

# V of O=C(O)CCC(=O)O.c1ccc(-c2ncc3cc(-n4ccnc4)ccc3n2)cc1 [succinate form A] = 3.74
